Each recorded value in this set is attributed to PubChem BioAssay.

assay-protocol: small-molecule binders of probe aNOTCH2, primary screen, biochemical, small-molecule microarray, 635/667 nm fluorescence (AID 1121);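 note: score merges feature fluorescence read at 667 nm with its signal to noise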
run-conditions: higher = more signal
quantity: composite z-score

O=C1O[C@@H](c2ccccc2)[C@@H](c2ccccc2)N2[C@@H](c3ccc(OCCO)cc3)[C@]3(C(=O)Nc4ccc(C#CCCO)cc43)[C@@H](C(=O)N3CCN(c4ncccn4)CC3)[C@H]12
-0.0684
COc1cc(CO)cc(I)c1O[C@H]1C=C(C(=O)NCCO)C[C@@H](N(CC2CCCCC2)C(=O)c2cc3ccccc3oc2=O)[C@@H]1O
-0.12
C=C(COC)/C(=C/C[C@H](OC(C)=O)c1ccc(OCCO)cc1)c1cnc2ccccc2c1
-0.108
